Overview of reported melting point across a group of molecules:

*Q* Return melting point (reported value) for this molecule: O=C(/C=C/c1ccc2ccn(Cc3ccccc3)c2c1)CC(=O)CCc1ccc(O)cc1 [CU520]
*A* 45 to 50 °C

*Q* Return melting point (reported value) for this molecule: CCN(CC)c1ccc(/C=C/C(=O)CC(=O)/C=C/c2ccc(O)c(OC)c2)c(OC(C)C)c1 [CU439]
*A* 156 to 160 °C

*Q* Return melting point (reported value) for this molecule: COc1cc(/C=C/C(=O)CC(=O)/C=C/c2cn(C)c3ccccc23)ccc1O [CU124]
*A* 173 to 175 °C

###

attribute.measured: melting point

*Q* Return melting point (reported value) for this compound: CCN(CC)c1ccc(/C=C/C(=O)CC(=O)/C=C/c2ccc(OC)c(O)c2)c(O)c1 [CU278]
*A* 101 to 108 °C

*Q* Return melting point (reported value) for this compound: O=C(/C=C/c1ccc(O)cc1)CC(=O)/C=C/c1cc(O)ccc1O [CU090]
*A* 133 to 140 °C

*Q* Return melting point (reported value) for this compound: O=C(/C=C/c1ccc(O)cc1)CC(=O)/C=C/c1ccc2nccnc2c1 [CU348]
*A* 251 to 255 °C

*Q* Return melting point (reported value) for this compound: COc1cccc(/C=C/C(=O)CC(=O)/C=C/c2ccc(O)cc2)c1 [CU158]
*A* 74 to 80 °C

*Q* Return melting point (reported value) for this compound: CCn1c2ccccc2c2cc(/C=C/C(=O)CC(=O)/C=C/c3ccc(OC)c(O)c3)ccc21 [CU108]
*A* 100 to 103 °C

*Q* Return melting point (reported value) for this compound: COc1cc(/C=C/C(=O)CC(=O)/C=C/c2ccc(F)c(OC)c2)ccc1O [CU138]
*A* 150 to 155 °C

*Q* Return melting point (reported value) for this compound: COc1cc(O)cc(/C=C/C(=O)CC(=O)/C=C/c2cc(O)cc(OC)c2)c1 [CU358]
*A* 147 to 151 °C

*Q* Return melting point (reported value) for this compound: COC(=O)c1ccccc1/C=C/C(=O)CC(=O)/C=C/c1ccc(O)cc1 [CU478]
*A* 145 to 150 °C

*Q* Return melting point (reported value) for this compound: O=C(/C=C/c1ccc(O)cc1)CC(=O)/C=C/c1cccc(O)c1O [CU264]
*A* 173 to 176 °C

*Q* Return melting point (reported value) for this compound: O=C(/C=C/c1ccc(O)cc1)CC(=O)/C=C/c1cn(Cc2ccccc2)c2ccccc12 [CU331]
*A* 243 to 249 °C

***
*Q* Return melting point (reported value) for this compound: COc1cc(/C=C/C(=O)CC(=O)/C=C/c2ccc(Cl)c(Cl)c2)ccc1O [CU046]
*A* 70 to 76 °C

*Q* Return melting point (reported value) for this compound: COc1cc(N(C)C)ccc1/C=C/C(=O)CC(=O)/C=C/c1ccc(O)cc1 [CU153]
*A* 100 to 105 °C

*Q* Return melting point (reported value) for this compound: COc1ccc(/C=C/C(=O)CC(=O)/C=C/c2ccc(N(C)C)c3ccccc23)cc1O [CU168]
*A* 146 to 150 °C

*Q* Return melting point (reported value) for this compound: COc1cc(/C=C/C(=O)CC(=O)/C=C/c2ccc3ccn(Cc4ccccc4)c3c2)ccc1O [CU443]
*A* 180 to 184 °C

*Q* Return melting point (reported value) for this compound: Cc1cc(/C=C/C(=O)CC(=O)/C=C/c2ccc(O)cc2)ccc1O [CU029]
*A* 197 to 199 °C

*Q* Return melting point (reported value) for this compound: COc1ccc(O)cc1/C=C/C(=O)CC(=O)/C=C/c1cc(O)ccc1OC [CU380]
*A* 188 to 196 °C

*Q* Return melting point (reported value) for this compound: Cc1ccc(S(=O)(=O)n2ccc3ccc(/C=C/C(=O)CC(=O)/C=C/c4ccc(O)cc4)cc32)cc1 [CU404]
*A* 107 to 112 °C

*Q* Return melting point (reported value) for this compound: COc1ccc(/C=C/C(=O)CC(=O)/C=C/c2ccc(O)cc2)c2ccccc12 [CU116]
*A* 193 to 198 °C
